Recorded values, source patent US9505742B2.

Molecular target: human CYP11B2 (Homo sapiens, UniProt P19099)
Construct: The expression plasmids contains the ORF for either human/cyno CYP11B1 or CYP11B2
Sequence (P19099 25-503): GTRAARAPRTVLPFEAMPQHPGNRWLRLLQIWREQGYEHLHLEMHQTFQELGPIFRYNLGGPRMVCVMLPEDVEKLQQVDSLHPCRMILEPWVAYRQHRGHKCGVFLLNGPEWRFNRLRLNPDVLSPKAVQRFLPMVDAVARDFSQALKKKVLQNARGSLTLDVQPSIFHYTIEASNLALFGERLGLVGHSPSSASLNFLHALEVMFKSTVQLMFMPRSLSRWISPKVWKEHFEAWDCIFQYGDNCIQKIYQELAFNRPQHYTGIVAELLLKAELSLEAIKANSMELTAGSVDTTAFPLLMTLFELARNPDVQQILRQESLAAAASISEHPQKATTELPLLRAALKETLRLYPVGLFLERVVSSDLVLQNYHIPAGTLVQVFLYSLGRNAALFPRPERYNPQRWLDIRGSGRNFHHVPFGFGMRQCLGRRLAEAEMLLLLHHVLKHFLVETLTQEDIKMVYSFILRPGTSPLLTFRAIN
Assay: G-402 cellular enzyme assay, human CYP11B2 (aldosterone release, HTRF)
Details: G-402 cells expressing human CYP11B2; 1 μM Deoxycorticosterone
quantity_kind: EC50 (nM)

Field: example entries. Status: answers known.
> print(dat)
                                   compound                              study.system  val
1  COc1ccc2c(n1)C(C)(C)N(c1cncc(C3(F)CCN(C(=O)c4cnn(C)c4)CC3)c1)C2=O [Example 41]  human CYP11B2 (Homo sapiens, UniProt P19099)   35
2  COc1ccc2c(n1)C(C)(C)N(c1cncc(C3CCN(C(=O)c4cnn(C)c4)CC3)c1)C2=O [Example 47]  human CYP11B2 (Homo sapiens, UniProt P19099)   41

I: COc1ccc2c(n1)C(C)(C)N(c1cncc(C3(F)CCN(S(=O)(=O)C(C)C)CC3)c1)C2=O [Example 42]
II: Cc1ccncc1C(=O)N1CC(c2cncc(N3C(=O)c4ccc(Cl)cc4C3(C)C)c2)C1 [Example 36]
Exercise: Please state the entry with greater EC50 among I and II . Answer by stating the label of the chosen item.
Key: I

P: CC(C)S(=O)(=O)N1CCC(F)(c2cncc(N3C(=O)c4ccc(Cl)cc4C3(C)C)c2)C1 (stereo not shown) [Example 14]
Q: CC(C)S(=O)(=O)N1CCC(c2cncc(N3C(=O)c4ccc(Cl)cc4[C@@H]3C)c2)CC1 (single isomer, unassigned) [Example 27]
R: Cc1ccncc1C(=O)N1CCC(c2cncc(N3Cc4cc(Cl)ccc4C3=O)c2)CC1 [Example 23]
Exercise: Task field, ranking: reported EC50, descending order. Write the labels, ordered according to the request.
Key: R, P, Q
(R: 97 nM, P: 4 nM, Q: 1 nM)
